Values from the supplement of paper PMC13380429

System: Calu-3
Test: cell viability relative to DMSO; higher = less toxic
Details: 72 h; 10000 nM
The entries below are paired with their reported cell viability.
Number plus unit, in that order.

Worked set:
compound=O=C(O)c1ccc(N[C@@H]2O[C@H](CO)[C@@H](O)[C@H](O)[C@@H]2O)cc1 target_desc=Calu-3 property_name="cell viability" reported_measurement=99%
compound=N#CC1(c2ccc(NC(=O)c3cccnc3NCc3ccncc3)cc2)CCCC1 target_desc=Calu-3 property_name="cell viability" reported_measurement=104%
compound=O=C(CCc1ccc(O)cc1)c1c(O)cc(O)cc1O[C@@H]1O[C@H](CO)[C@@H](O)[C@H](O)[C@H]1O target_desc=Calu-3 property_name="cell viability" reported_measurement=95.3%
compound=Cc1cc([N+](=O)[O-])ccc1NS(=O)(=O)c1cc(Cl)ccc1Cl target_desc=Calu-3 property_name="cell viability" reported_measurement=93.2%
compound=CNCC(=O)O target_desc=Calu-3 property_name="cell viability" reported_measurement=97.7%

Record O=C1OC(c2ccc(O)cc2)(c2ccc(O)cc2)c2ccccc21 . Reported cell viability: 102%

Record CC[C@H]1[C@@H](O)[C@@H]2[C@H](CC[C@]3(C)[C@@H]([C@H](C)CCOS(=O)(=O)O)CC[C@@H]23)[C@@]2(C)CC[C@@H](O)C[C@@H]12 . Reported cell viability: 99.5%

Record Cc1oc2ccccc2c1CNC(=O)NCc1cccs1 . Reported cell viability: 99.3%

Record Cc1cc(-c2cc(O)ccc2Cl)cc2nnc(Nc3ccc(OCCN4CCCC4)cc3)nc12 . Reported cell viability: 0.1%

###

System: Caco-2
Test: cell viability relative to DMSO; higher = less toxic
Conditions: 72 h; 100 nM
Property Name: cell viability (%)
Express your answer in %, writing the number without its unit.

Worked set:
molecule="CC(=O)NCCc1c(Cc2ccccc2)[nH]c2ccccc12 [luzindole]" unit_text=% reported_measurement=106
molecule="CC(=O)Nc1c(I)c(C(=O)O)c(I)c(N(C)C(C)=O)c1I [metrizoic-acid]" unit_text=% reported_measurement=94
molecule="CC1=C(C(=O)OC(C)C)C(c2cccc([N+](=O)[O-])c2)C(C(=O)OC2CN(C(c3ccccc3)c3ccccc3)C2)=C(N)N1 (centres undefined) [azelnidipine]" unit_text=% reported_measurement=100

Shifting focus to the molecule that follows.
# value of cell viability, Caco-2, item Cc1ccccc1N1CCN(S(=O)(=O)C[C@]23CC[C@H](C[C@@H]2NC(=O)[C@@H](N)CCS(C)(=O)=O)C3(C)C)CC1 = 90

###

The entries below are paired with their reported cell viability.
Test system: HepG2
Test: cell viability relative to DMSO; higher = less toxic
Conditions: 72 h; 10000 nM
Express your answer in %, writing the number without its unit.

molecule=N[C@@H](CC(=O)N1CCn2c(nnc2C(F)(F)F)C1)Cc1cc(F)c(F)cc1F property_name="cell viability" reported_measurement=88.6
molecule=NC(=O)N1C(=O)/C(=C(\O)c2cccs2)c2cc(Cl)ccc21 property_name="cell viability" reported_measurement=99.9
molecule="O=C1CC[C@@](c2ccccc2)(C2CCN(Cc3ccc(I)cc3)CC2)C(=O)N1 [iododexetimide]" property_name="cell viability" reported_measurement=83.6

Record C/C(=N\NC(=O)C(NC(=O)c1ccccc1)c1n[nH]c(=O)c2ccccc12)c1cccc(Br)c1 (centres undefined) . Reported cell viability: 106

Record CC1CCN(CC[C@H]2CCCN2S(=O)(=O)c2cccc(O)c2)CC1 . Reported cell viability: 101

Record CCc1cc(O)c(Oc2ccc(C(N)=O)cc2F)cc1F . Reported cell viability: 97.4

Record O=C(O)C[C@H](O)C[C@H](O)/C=C/c1c(C2CC2)nc2ccccc2c1-c1ccc(F)cc1 . Reported cell viability: 57.1

Record CC(C)Oc1ccc(-c2nc(-c3cccc4c3CC[C@H]4NCCC(=O)O)no2)cc1C#N . Reported cell viability: 110

Record c1cc2c3c(c1)c1c(n3CCNC2)CCCC1 . Reported cell viability: 90.9
